target-of-assay: PI3K delta (Homo sapiens, UniProt O00329)
Construct: Full length p110 subunits of PI3k α, β and δ, N-terminally labeled with polyHis tag; polyHis (N); made in house; host or cells: Sf9 insect cells (baculovirus)
Sequence (O00329 whole entry): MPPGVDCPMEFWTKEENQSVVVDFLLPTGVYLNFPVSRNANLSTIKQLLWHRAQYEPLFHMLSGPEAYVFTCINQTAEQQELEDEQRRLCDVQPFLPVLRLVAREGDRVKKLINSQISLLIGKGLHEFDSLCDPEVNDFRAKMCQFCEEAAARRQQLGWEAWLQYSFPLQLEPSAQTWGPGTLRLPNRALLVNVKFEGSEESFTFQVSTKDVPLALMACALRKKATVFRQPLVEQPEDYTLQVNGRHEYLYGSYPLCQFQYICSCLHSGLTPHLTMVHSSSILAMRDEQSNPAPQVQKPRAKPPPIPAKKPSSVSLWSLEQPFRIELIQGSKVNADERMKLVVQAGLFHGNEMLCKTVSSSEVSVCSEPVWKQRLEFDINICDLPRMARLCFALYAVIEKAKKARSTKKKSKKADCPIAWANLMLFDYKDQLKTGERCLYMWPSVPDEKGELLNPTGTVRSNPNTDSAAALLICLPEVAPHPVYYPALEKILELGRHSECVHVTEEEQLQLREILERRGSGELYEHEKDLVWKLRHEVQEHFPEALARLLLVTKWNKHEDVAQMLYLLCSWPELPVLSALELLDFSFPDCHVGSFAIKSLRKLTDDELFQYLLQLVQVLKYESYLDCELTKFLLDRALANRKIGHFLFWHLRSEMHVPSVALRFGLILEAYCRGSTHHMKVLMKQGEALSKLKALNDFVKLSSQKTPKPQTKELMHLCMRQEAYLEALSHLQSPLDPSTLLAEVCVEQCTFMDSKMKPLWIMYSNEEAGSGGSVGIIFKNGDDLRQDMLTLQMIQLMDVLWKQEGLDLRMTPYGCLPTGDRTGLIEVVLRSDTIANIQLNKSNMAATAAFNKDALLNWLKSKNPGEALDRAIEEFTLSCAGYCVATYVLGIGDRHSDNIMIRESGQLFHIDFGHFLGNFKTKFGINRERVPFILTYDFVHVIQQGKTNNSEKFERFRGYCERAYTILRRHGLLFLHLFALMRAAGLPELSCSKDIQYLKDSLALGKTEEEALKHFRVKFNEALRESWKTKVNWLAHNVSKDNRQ
Sequence (P27986 whole entry partner): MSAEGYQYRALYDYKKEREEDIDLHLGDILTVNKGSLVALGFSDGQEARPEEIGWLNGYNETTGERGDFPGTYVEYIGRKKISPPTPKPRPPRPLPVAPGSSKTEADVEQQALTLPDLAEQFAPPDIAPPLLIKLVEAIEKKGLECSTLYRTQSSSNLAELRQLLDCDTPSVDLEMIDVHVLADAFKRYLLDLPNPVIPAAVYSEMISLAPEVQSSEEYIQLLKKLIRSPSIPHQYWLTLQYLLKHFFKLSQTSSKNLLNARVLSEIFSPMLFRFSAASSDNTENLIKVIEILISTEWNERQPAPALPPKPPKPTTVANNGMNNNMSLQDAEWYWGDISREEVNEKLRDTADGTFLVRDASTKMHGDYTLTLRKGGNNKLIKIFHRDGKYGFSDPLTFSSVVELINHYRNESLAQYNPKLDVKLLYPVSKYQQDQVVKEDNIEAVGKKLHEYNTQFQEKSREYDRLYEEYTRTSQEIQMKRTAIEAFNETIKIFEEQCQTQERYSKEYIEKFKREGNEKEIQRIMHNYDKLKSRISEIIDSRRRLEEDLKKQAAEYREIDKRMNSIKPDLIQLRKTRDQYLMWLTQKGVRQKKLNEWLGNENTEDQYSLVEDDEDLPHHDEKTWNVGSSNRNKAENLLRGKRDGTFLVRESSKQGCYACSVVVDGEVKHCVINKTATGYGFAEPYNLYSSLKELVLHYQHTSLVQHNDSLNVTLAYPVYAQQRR
test-method-notes: In vitro enzyme assay, PI3K delta biochemical potency
condition-label: comparison of the two separated enantiomers
readout-kind: PI3K delta biochemical potency, one isomer relative to the other

[
  {
    "compound": "C[C@@H](Nc1ncnc(N)c1C#N)c1nc2cccnc2cc1-c1ccccc1 (single isomer, unassigned; isomer 4) [Example 4 R-isomer]",
    "experimental-result": "less potent"
  },
  {
    "compound": "C[C@H](Nc1ncnc(N)c1C#N)c1cc2ncccc2nc1-c1ccccc1F (single isomer, unassigned; isomer 4) [Example 2 S-isomer]",
    "experimental-result": "more potent"
  },
  {
    "compound": "C[C@H](Nc1ncnc(N)c1C#N)c1cc2ncccc2nc1-c1cc(F)cc(F)c1 (single isomer, unassigned; isomer 4) [Example 3 S-isomer]",
    "experimental-result": "more potent"
  },
  {
    "compound": "C[C@H](Nc1ncnc(N)c1C#N)c1nc2cccnc2cc1-c1ccccc1 (single isomer, unassigned; isomer 4) [Example 4 S-isomer]",
    "experimental-result": "more potent"
  },
  {
    "compound": "C[C@@H](Nc1ncnc(N)c1C#N)c1cc2ncccc2nc1-c1cc(F)cc(F)c1 (single isomer, unassigned; isomer 4) [Example 3 R-isomer]",
    "experimental-result": "less potent"
  },
  {
    "compound": "C[C@@H](Nc1ncnc(N)c1C#N)c1cc2ncccc2nc1-c1ccccc1F (single isomer, unassigned; isomer 4) [Example 2 R-isomer]",
    "experimental-result": "less potent"
  }
]
